# System: NELF-A full-length;NELF-B;NELF-D (called NELF-C);NELF-E (1-138) (Homo sapiens;Homo sapiens;Homo …, UniProt Q9H3P2;Q8WX92;Q8IXH7-4;P18615 1-528;49-628;1-581;1-138, |||)
# Sequence (Q9H3P2 whole entry, chain 1 of 4): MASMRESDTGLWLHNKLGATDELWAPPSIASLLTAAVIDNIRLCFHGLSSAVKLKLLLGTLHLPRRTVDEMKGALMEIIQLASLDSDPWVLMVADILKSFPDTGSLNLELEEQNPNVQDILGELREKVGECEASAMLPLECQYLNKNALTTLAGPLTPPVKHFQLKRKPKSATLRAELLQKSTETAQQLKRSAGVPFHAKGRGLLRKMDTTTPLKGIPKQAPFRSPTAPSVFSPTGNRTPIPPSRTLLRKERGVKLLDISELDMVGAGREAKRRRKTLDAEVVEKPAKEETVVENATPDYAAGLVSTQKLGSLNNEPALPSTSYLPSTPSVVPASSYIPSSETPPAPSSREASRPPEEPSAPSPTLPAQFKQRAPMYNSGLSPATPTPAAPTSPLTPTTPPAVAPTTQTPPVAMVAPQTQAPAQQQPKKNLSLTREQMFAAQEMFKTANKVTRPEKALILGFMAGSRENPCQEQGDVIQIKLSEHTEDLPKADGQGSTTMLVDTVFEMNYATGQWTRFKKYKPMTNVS
# Sequence (Q8WX92 whole entry, chain 2 of 4): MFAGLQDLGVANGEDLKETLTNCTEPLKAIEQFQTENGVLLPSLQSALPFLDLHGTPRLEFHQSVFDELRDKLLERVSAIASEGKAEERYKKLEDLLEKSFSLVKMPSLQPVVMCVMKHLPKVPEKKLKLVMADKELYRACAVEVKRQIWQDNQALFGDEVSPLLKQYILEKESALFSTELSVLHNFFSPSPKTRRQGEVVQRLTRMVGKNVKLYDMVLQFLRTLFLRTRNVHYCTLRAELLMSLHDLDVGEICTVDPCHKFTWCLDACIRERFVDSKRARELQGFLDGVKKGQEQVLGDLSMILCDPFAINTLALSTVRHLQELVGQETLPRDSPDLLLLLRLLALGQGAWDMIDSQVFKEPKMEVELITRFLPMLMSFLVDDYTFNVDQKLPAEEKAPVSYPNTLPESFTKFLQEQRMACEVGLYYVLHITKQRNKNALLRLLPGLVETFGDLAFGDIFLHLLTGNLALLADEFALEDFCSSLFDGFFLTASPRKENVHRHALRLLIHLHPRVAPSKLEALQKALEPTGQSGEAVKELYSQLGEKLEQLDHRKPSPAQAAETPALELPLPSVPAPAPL
# Sequence (Q8IXH7 10-590, chain 3 of 4): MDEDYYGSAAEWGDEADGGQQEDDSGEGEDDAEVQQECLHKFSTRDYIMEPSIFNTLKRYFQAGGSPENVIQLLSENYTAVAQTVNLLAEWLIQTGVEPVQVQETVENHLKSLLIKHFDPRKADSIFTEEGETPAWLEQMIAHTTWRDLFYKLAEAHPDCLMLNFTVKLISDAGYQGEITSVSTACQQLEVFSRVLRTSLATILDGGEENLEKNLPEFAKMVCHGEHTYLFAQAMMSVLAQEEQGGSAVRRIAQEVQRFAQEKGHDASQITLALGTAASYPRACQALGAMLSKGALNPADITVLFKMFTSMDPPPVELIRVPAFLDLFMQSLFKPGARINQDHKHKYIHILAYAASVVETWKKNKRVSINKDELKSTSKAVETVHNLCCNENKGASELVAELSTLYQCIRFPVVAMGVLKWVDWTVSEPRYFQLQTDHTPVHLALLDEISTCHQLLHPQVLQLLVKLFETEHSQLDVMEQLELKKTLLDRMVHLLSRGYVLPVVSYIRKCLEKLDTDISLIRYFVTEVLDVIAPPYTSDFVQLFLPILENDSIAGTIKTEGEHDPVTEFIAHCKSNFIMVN
# Sequence (P18615 1-138, chain 4 of 4): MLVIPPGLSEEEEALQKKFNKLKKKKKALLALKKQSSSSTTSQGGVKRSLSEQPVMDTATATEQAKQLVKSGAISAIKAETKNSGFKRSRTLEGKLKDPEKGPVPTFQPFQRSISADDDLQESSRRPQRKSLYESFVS
# Assay Procedure: fluorescence anisotropy; yeast tRNA 5 ug/ml; NELF-AC: 30 mM NaCl, 3 mM MgCl2, 10 mM Na-HEPES pH 7.4, 2 mM DTT, 50 ug/ml BSA; other NELF complexes: same with 60 mM NaCl and 5 ug/ml yeast tRNA; 10 nM nucleic acid, incubated at RT, read at 30 C
# Test Settings: protein: recombinant;recombinant;recombinant;recombinant; copies: 1;1;1;1; label: 5'-FAM; hairpin
Property Label: Kd (nM)
The reply should contain only the number, in nM.

Suppose we examine the binder CCAGAUCUGAGCCUGGGAGCUCUCUGG (structured_RNA) [HIV-1 TAR RNA stem loop] ; what Kd value has been reported?
869
